Test: Cytotoxicity against SK6 cells assessed as reduction in cell viability after 2 days by MTS method
Format: cell-based, Sus scrofa
Conditions: pig, SK6 cells
Readings of CC50 at 48 h for the listed compounds

smiles.code: O=C(Nc1ccc(S[C@@H]2O[C@H](CO)[C@@H](O)[C@H](O)[C@H]2O)nc1)[C@H]1O[C@@H](n2ccc(=O)[nH]c2=O)[C@H](O)[C@@H]1O
units: µM
operator: =
CC50 at 48 h: 380

smiles.code: CC(=O)OC[C@H]1O[C@@H](Sc2ccc(NC(=O)[C@H]3O[C@@H](n4ccc(=O)[nH]c4=O)[C@@H]4OC(C)(C)O[C@@H]43)cn2)[C@H](OC(C)=O)[C@@H](OC(C)=O)[C@@H]1OC(C)=O
units: µM
operator: >
CC50 at 48 h: 380

smiles.code: CC(=O)OC[C@H]1O[C@@H](Sc2ccc(NC(=O)CCC(=O)OC[C@H]3O[C@@H](n4ccc(=O)[nH]c4=O)[C@@H]4OC(C)(C)O[C@@H]43)cn2)[C@H](OC(C)=O)[C@@H](OC(C)=O)[C@@H]1OC(C)=O
units: µM
operator: =
CC50 at 48 h: 207

smiles.code: CC(=O)OC[C@H]1O[C@@H](Sc2ccc(NC(=O)CCC(=O)OC[C@H]3O[C@@H](n4ccc(=O)n(C(=O)c5ccccc5)c4=O)[C@H](O[Si](C)(C)C(C)(C)C)[C@@H]3O[Si](C)(C)C(C)(C)C)cn2)[C@H](OC(C)=O)[C@@H](OC(C)=O)[C@@H]1OC(C)=O
units: µM
operator: =
CC50 at 48 h: 45

smiles.code: CC(=O)OC[C@H]1O[C@@H](Sc2ccc(NC(=O)[C@H]3O[C@@H](n4ccc(=O)[nH]c4=O)[C@H](O[Si](C)(C)C(C)(C)C)[C@@H]3O[Si](C)(C)C(C)(C)C)cn2)[C@H](OC(C)=O)[C@@H](OC(C)=O)[C@@H]1OC(C)=O
units: µM
operator: =
CC50 at 48 h: 86

smiles.code: CC(=O)OC[C@H]1O[C@@H](Sc2ccc(NC(=O)CCC(=O)OC[C@H]3O[C@@H](n4ccc(=O)[nH]c4=O)[C@@H]4OC(C)(C)O[C@@H]43)cn2)[C@H](OC(C)=O)[C@@H](OC(C)=O)[C@H]1OC(C)=O
units: µM
operator: =
CC50 at 48 h: 194

smiles.code: CC(=O)OC[C@H]1O[C@@H](Sc2ccc(NC(=O)[C@H]3O[C@@H](n4ccc(=O)[nH]c4=O)[C@H](O[Si](C)(C)C(C)(C)C)[C@@H]3O[Si](C)(C)C(C)(C)C)cn2)[C@H](OC(C)=O)[C@@H](OC(C)=O)[C@H]1OC(C)=O
units: µM
operator: =
CC50 at 48 h: 151

smiles.code: CC(=O)OC[C@H]1O[C@@H](Sc2ccc(NC(=O)[C@H]3O[C@@H](n4ccc(=O)[nH]c4=O)[C@@H]4OC(C)(C)O[C@@H]43)cn2)[C@H](OC(C)=O)[C@@H](OC(C)=O)[C@H]1OC(C)=O
units: µM
operator: >
CC50 at 48 h: 353
